Origin of the recorded values: patent US20080267971A1

Property: koff; scope: individual binders
Biological target: T1, human Angiopoietin-2 (human, UniProt O15123 19-496)
T1 construct: Mostly bought recombinant protein (R&D Systems 623-AM/CF, 623-AN; biotinylated BT623) or supernatant of transfected 293F cells; also called Ang-2; rhAng-2
T1 sequence: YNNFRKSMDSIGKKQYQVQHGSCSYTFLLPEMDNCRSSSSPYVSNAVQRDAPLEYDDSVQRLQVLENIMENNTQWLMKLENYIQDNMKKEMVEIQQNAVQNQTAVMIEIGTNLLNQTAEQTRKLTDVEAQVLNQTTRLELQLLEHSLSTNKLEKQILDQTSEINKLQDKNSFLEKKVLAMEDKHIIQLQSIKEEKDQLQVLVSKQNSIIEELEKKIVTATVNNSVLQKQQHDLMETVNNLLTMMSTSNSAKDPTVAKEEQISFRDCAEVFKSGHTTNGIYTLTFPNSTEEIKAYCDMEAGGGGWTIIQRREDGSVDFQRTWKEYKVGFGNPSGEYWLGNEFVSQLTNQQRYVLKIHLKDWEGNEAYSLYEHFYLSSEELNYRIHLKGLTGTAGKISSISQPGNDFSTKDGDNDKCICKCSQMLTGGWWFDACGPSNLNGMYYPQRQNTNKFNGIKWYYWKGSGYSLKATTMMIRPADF
Experiment: Biacore; kd held constant (*)

binder	koff
mAb 5.28.1 (antibody, V domains shown, Human hybridoma IgG (XenoMouse); also called x5.28) VH: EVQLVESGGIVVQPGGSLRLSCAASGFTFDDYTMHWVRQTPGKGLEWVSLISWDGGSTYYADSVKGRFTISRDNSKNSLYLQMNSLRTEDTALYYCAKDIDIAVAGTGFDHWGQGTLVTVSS VL: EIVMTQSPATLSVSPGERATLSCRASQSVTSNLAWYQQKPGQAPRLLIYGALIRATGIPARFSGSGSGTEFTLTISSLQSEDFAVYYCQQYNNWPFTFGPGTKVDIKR	≤ 1e-05 s⁻¹
mAb 5.108.1 (antibody, V domains shown, Human hybridoma IgG (XenoMouse); also called x5.108) VH: QVQLVESGGGVVQPGRSLRLSCAASGFTFSSYGMHWVRQAPGKGLEWVAVIWYDGSNKYYADSVKGRFTISRDNSKNTLYLQMNSLRAEDTAMYYCARELALWGQGTLVTVSS VL: EIVMTQSPATLSVSPGERATLSCRASQSVSSYLAWYQQKPGQAPRLLIYGAFTRATGIPARFRGSGSGPEFTLTISSLQSEDFAVYYCQQYSHWWTFGQGTKVEIKR	≤ 1e-05 s⁻¹
mAb 5.56.1 (antibody, V domains shown, Human hybridoma IgG (XenoMouse); also called x5.56) VH: QVQLVESGGGVVQPGRSLRLSCAASGFTFSSYGMHWVRQAPGKGLEWVAVIWYDGSNKYYADSVKGRFTISRDNSKNTLYLQMNSLRAEDTAVYYCAREDNWNFYFDYWGQGTLVTVSS VL: DIQMTQSPSSLSASVGDRVTITCRASQGISYYLAWYQQKPGKVPKLLIYAASTLQSGVPSRFSGSGSGTDFTLTISSLQPEDVATYYCQKYNSAPFTFGPGTKVDIKR	≤ 1e-05 s⁻¹
mAb 3.31.2 (antibody, V domains shown, Human hybridoma IgG (XenoMouse); also called x3.31) VH: EVQLVESGGGLVQPGGSLRLSCAASGFTFSSYWMSWVRQAPGKGLEWVANIKQDGSDKYYVDSVKGRFTISRDNAKNSLYLRMNSLRAEDTAVFYCARDMGSGWFDYWGQGTLVTVSS VL: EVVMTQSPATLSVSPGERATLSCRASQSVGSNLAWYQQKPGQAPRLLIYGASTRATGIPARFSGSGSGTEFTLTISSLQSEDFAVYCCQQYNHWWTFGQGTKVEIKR	≤ 1e-05 s⁻¹

# evaluate next
Supply recorded koff for mAb 3.3.2 (antibody, V domains shown, Human hybridoma IgG (XenoMouse); also called 3.3.1; x3.3) VH: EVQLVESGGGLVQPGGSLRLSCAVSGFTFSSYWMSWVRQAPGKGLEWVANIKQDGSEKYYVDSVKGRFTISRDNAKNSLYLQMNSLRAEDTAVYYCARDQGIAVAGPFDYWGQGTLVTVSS VL: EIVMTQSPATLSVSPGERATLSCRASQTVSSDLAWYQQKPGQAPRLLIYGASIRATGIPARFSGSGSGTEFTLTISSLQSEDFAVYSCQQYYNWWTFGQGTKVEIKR here. ≤ 1e-05 s⁻¹
